- assay-context: in acetonitrile, 278.15 K
recorded-metric: solubility (mole fraction)

Can you look up the measured solubility (mole fraction) of Cl.OC(CCCN1CCCCC1)(c1ccccc1)c1ccccc1 for me?
0.000127

----------
- assay-context: in DMF, 303.15 K
recorded-metric: solubility (mole fraction)
One number for each entry.

Can you look up the measured solubility (mole fraction) of Cl.OC(CCCN1CCCCC1)(c1ccccc1)c1ccccc1 for me?
0.00515

----------
- assay-context: in n-butanol, 303.15 K
recorded-metric: solubility (mole fraction)
Give bare numbers.

Can you look up the measured solubility (mole fraction) of Cl.OC(CCCN1CCCCC1)(c1ccccc1)c1ccccc1 for me?
0.00169

----------
- assay-context: in methanol, 318.15 K
recorded-metric: solubility (mole fraction)
Numbers only.

Can you look up the measured solubility (mole fraction) of Cl.OC(CCCN1CCCCC1)(c1ccccc1)c1ccccc1 for me?
0.0337

----------
- assay-context: in water, 323.15 K
recorded-metric: solubility (mole fraction)
One number for each entry.

Can you look up the measured solubility (mole fraction) of Cl.OC(CCCN1CCCCC1)(c1ccccc1)c1ccccc1 for me?
0.00216

----------
- assay-context: in water, 308.15 K
recorded-metric: solubility (mole fraction)
One number for each entry.

Can you look up the measured solubility (mole fraction) of Cl.OC(CCCN1CCCCC1)(c1ccccc1)c1ccccc1 for me?
0.00165

----------
- assay-context: in acetic acid, 313.15 K
recorded-metric: solubility (mole fraction)
Numbers only.

Can you look up the measured solubility (mole fraction) of Cl.OC(CCCN1CCCCC1)(c1ccccc1)c1ccccc1 for me?
0.0263

----------
- assay-context: in acetonitrile, 283.15 K
recorded-metric: solubility (mole fraction)
One number for each entry.

Can you look up the measured solubility (mole fraction) of Cl.OC(CCCN1CCCCC1)(c1ccccc1)c1ccccc1 for me?
0.00016

----------
- assay-context: in DMAc, 308.15 K
recorded-metric: solubility (mole fraction)
Numbers only.

Can you look up the measured solubility (mole fraction) of Cl.OC(CCCN1CCCCC1)(c1ccccc1)c1ccccc1 for me?
0.00457

----------
- assay-context: in water, 298.15 K
recorded-metric: solubility (mole fraction)
Numbers only.

Can you look up the measured solubility (mole fraction) of Cl.OC(CCCN1CCCCC1)(c1ccccc1)c1ccccc1 for me?
0.00135

----------
- assay-context: in n-propanol, 303.15 K
recorded-metric: solubility (mole fraction)

Can you look up the measured solubility (mole fraction) of Cl.OC(CCCN1CCCCC1)(c1ccccc1)c1ccccc1 for me?
0.00309

----------
- assay-context: in water, 288.15 K
recorded-metric: solubility (mole fraction)

Can you look up the measured solubility (mole fraction) of Cl.OC(CCCN1CCCCC1)(c1ccccc1)c1ccccc1 for me?
0.00112

----------
- assay-context: in methanol, 283.15 K
recorded-metric: solubility (mole fraction)

Can you look up the measured solubility (mole fraction) of Cl.OC(CCCN1CCCCC1)(c1ccccc1)c1ccccc1 for me?
0.0109

----------
- assay-context: in acetic acid, 323.15 K
recorded-metric: solubility (mole fraction)
Give bare numbers.

Can you look up the measured solubility (mole fraction) of Cl.OC(CCCN1CCCCC1)(c1ccccc1)c1ccccc1 for me?
0.0632

----------
- assay-context: in acetonitrile, 293.15 K
recorded-metric: solubility (mole fraction)
Numbers only.

Can you look up the measured solubility (mole fraction) of Cl.OC(CCCN1CCCCC1)(c1ccccc1)c1ccccc1 for me?
0.000306

----------
- assay-context: in ethanol, 303.15 K
recorded-metric: solubility (mole fraction)
Answers are plain numbers.

Can you look up the measured solubility (mole fraction) of Cl.OC(CCCN1CCCCC1)(c1ccccc1)c1ccccc1 for me?
0.00405

----------
- assay-context: in water, 313.15 K
recorded-metric: solubility (mole fraction)
Give bare numbers.

Can you look up the measured solubility (mole fraction) of Cl.OC(CCCN1CCCCC1)(c1ccccc1)c1ccccc1 for me?
0.00173

----------
- assay-context: in n-propanol, 308.15 K
recorded-metric: solubility (mole fraction)
Answers are plain numbers.

Can you look up the measured solubility (mole fraction) of Cl.OC(CCCN1CCCCC1)(c1ccccc1)c1ccccc1 for me?
0.00364

----------
- assay-context: in DMSO, 293.15 K
recorded-metric: solubility (mole fraction)
Answers are plain numbers.

Can you look up the measured solubility (mole fraction) of Cl.OC(CCCN1CCCCC1)(c1ccccc1)c1ccccc1 for me?
0.0121

----------
- assay-context: in n-propanol, 318.15 K
recorded-metric: solubility (mole fraction)
One number for each entry.

Can you look up the measured solubility (mole fraction) of Cl.OC(CCCN1CCCCC1)(c1ccccc1)c1ccccc1 for me?
0.00575

----------
- assay-context: in n-butanol, 293.15 K
recorded-metric: solubility (mole fraction)
Answers are plain numbers.

Can you look up the measured solubility (mole fraction) of Cl.OC(CCCN1CCCCC1)(c1ccccc1)c1ccccc1 for me?
0.00113

----------
- assay-context: in n-propanol, 323.15 K
recorded-metric: solubility (mole fraction)
One number for each entry.

Can you look up the measured solubility (mole fraction) of Cl.OC(CCCN1CCCCC1)(c1ccccc1)c1ccccc1 for me?
0.00708

----------
- assay-context: in NMP, 283.15 K
recorded-metric: solubility (mole fraction)
Give bare numbers.

Can you look up the measured solubility (mole fraction) of Cl.OC(CCCN1CCCCC1)(c1ccccc1)c1ccccc1 for me?
0.00492

----------
- assay-context: in water, 303.15 K
recorded-metric: solubility (mole fraction)
Numbers only.

Can you look up the measured solubility (mole fraction) of Cl.OC(CCCN1CCCCC1)(c1ccccc1)c1ccccc1 for me?
0.0015

----------
- assay-context: in n-propanol, 288.15 K
recorded-metric: solubility (mole fraction)
Give bare numbers.

Can you look up the measured solubility (mole fraction) of Cl.OC(CCCN1CCCCC1)(c1ccccc1)c1ccccc1 for me?
0.00199

----------
- assay-context: in methanol, 323.15 K
recorded-metric: solubility (mole fraction)
Numbers only.

Can you look up the measured solubility (mole fraction) of Cl.OC(CCCN1CCCCC1)(c1ccccc1)c1ccccc1 for me?
0.0397

----------
- assay-context: in DMF, 318.15 K
recorded-metric: solubility (mole fraction)
Numbers only.

Can you look up the measured solubility (mole fraction) of Cl.OC(CCCN1CCCCC1)(c1ccccc1)c1ccccc1 for me?
0.00811

----------
- assay-context: in DMAc, 318.15 K
recorded-metric: solubility (mole fraction)
Give bare numbers.

Can you look up the measured solubility (mole fraction) of Cl.OC(CCCN1CCCCC1)(c1ccccc1)c1ccccc1 for me?
0.00596

----------
- assay-context: in acetonitrile, 323.15 K
recorded-metric: solubility (mole fraction)

Can you look up the measured solubility (mole fraction) of Cl.OC(CCCN1CCCCC1)(c1ccccc1)c1ccccc1 for me?
0.00105

----------
- assay-context: in n-pentanol, 318.15 K
recorded-metric: solubility (mole fraction)
Numbers only.

Can you look up the measured solubility (mole fraction) of Cl.OC(CCCN1CCCCC1)(c1ccccc1)c1ccccc1 for me?
0.00265

----------
- assay-context: in n-butanol, 308.15 K
recorded-metric: solubility (mole fraction)
One number for each entry.

Can you look up the measured solubility (mole fraction) of Cl.OC(CCCN1CCCCC1)(c1ccccc1)c1ccccc1 for me?
0.00206

----------
- assay-context: in NMP, 323.15 K
recorded-metric: solubility (mole fraction)
Answers are plain numbers.

Can you look up the measured solubility (mole fraction) of Cl.OC(CCCN1CCCCC1)(c1ccccc1)c1ccccc1 for me?
0.0141

----------
- assay-context: in DMF, 308.15 K
recorded-metric: solubility (mole fraction)
Numbers only.

Can you look up the measured solubility (mole fraction) of Cl.OC(CCCN1CCCCC1)(c1ccccc1)c1ccccc1 for me?
0.00615

----------
- assay-context: in DMSO, 323.15 K
recorded-metric: solubility (mole fraction)
Numbers only.

Can you look up the measured solubility (mole fraction) of Cl.OC(CCCN1CCCCC1)(c1ccccc1)c1ccccc1 for me?
0.0242

----------
- assay-context: in DMAc, 303.15 K
recorded-metric: solubility (mole fraction)
One number for each entry.

Can you look up the measured solubility (mole fraction) of Cl.OC(CCCN1CCCCC1)(c1ccccc1)c1ccccc1 for me?
0.00407

----------
- assay-context: in n-pentanol, 323.15 K
recorded-metric: solubility (mole fraction)
Give bare numbers.

Can you look up the measured solubility (mole fraction) of Cl.OC(CCCN1CCCCC1)(c1ccccc1)c1ccccc1 for me?
0.00327

----------
- assay-context: in methanol, 278.15 K
recorded-metric: solubility (mole fraction)

Can you look up the measured solubility (mole fraction) of Cl.OC(CCCN1CCCCC1)(c1ccccc1)c1ccccc1 for me?
0.00929

----------
- assay-context: in NMP, 318.15 K
recorded-metric: solubility (mole fraction)
Give bare numbers.

Can you look up the measured solubility (mole fraction) of Cl.OC(CCCN1CCCCC1)(c1ccccc1)c1ccccc1 for me?
0.012

----------
- assay-context: in n-butanol, 318.15 K
recorded-metric: solubility (mole fraction)
One number for each entry.

Can you look up the measured solubility (mole fraction) of Cl.OC(CCCN1CCCCC1)(c1ccccc1)c1ccccc1 for me?
0.00304
